Tested on: Quadruplex DNA
Assay Explanation: Stabilization of 5'-FAM/3'-TAMRA labeled K-Ras G4 quadruplex DNA (unknown origin) assessed as change in melting temperature at 10 microM measured after 15 mins by FRET assay
Type: nucleic-acid assay

{"Compound": "O=c1c2ccccc2n2cnc3ccc(NCCCN4CCN(CCCNc5c6ccccc6nc6cccc([N+](=O)[O-])c56)CC4)c1c32", "Units": "°C", "ΔTm": 27.6}
{"Compound": "NC(CCN1CCN(CCCNc2ccc3nnn4c5ccc(O)cc5c(=O)c2c34)CC1)c1ccc2nc3ccccc3cc2c1[N+](=O)[O-] (centres undefined)", "Units": "°C", "ΔTm": 36.5}
{"Compound": "O=c1c2cc(O)ccc2n2cnc3ccc(NCCCN4CCN(CCCNc5c6ccccc6nc6cccc([N+](=O)[O-])c56)CC4)c1c32", "Units": "°C", "ΔTm": 22.3}
{"Compound": "Cc1ccc([N+](=O)[O-])c2c(NCCCN(C)CCCNc3ccc([N+](=O)[O-])c4[nH]c5ccccc5c(=O)c34)c3ccccc3nc12", "Units": "°C", "ΔTm": 28.5}
